The values you see were collected from PubChem BioAssay (NCI).

- Test system: MALME-3M melanoma
- protocol-summary: NCI tumour cell line growth inhibition, 48 h
The molecules listed here are annotated with their TGI.

molecule	result
O=C(Cn1cc(F)c(=O)[nH]c1=O)C12CC3CC(CC(C3)C1)C2	> 100 µM
CCN1CN(c2ccccc2)C2(CCN(CCCSc3ccc(F)cc3)CC2)C1=O	36.1 µM
O=c1[nH]nc2ccccc2c1Cl	31 µM
CCN(CCCN(CC)C(=O)Nc1ccccc1)C(=O)Nc1ccccc1	> 100 µM
NC1CC(N)c2c(Br)sc(Br)c21 (stereo not given)	> 100 µM
COC1(O)C(=O)c2ccccc2OC1(OC)c1ccccc1 (stereo not given)	> 100 µM
Cc1cccc(NC(=O)c2cc3cc(N=Nc4ccccc4Cl)ccc3oc2=O)c1	> 100 µM
c1ccc(-c2ccc(-c3cc4ccccc4[nH]3)cc2)cc1	> 100 µM

Could you share what TGI was measured for COc1ccc(-c2nnc(SCC(=O)Nc3ccc(/C(C)=N\O)cc3)n2-c2ccccc2)cc1OC , tested on MALME-3M melanoma?
> 100 µM

Repeat with Cc1cnc(/N=c2\sc(C)cn2-c2ncc(C)s2)s1
> 100 µM

What about NC(=O)NO ?
2480 µM

Lookup CC1=CCC(OC(=O)C(C)(C)CCC(O)(C(=O)OC2(C(C)C)CCC3(C)OC3C2)C(C)C)(C(C)C)CC1 (stereo not given)
1.48 µM

Request: NNC(=O)CCC(=O)Nc1cc(Cl)c(Cl)cc1Cl
> 100 µM

// query: c1cc(CCN2CCCCC2)ccn1
> 100 µM

Repeat for the following molecule: c1ccc(C(c2ccccc2)[P+](c2ccccc2)(c2ccccc2)c2ccccc2)cc1
14.7 µM
